# Tested on: SW-620 colon
# method-notes: NCI tumour cell line growth inhibition, 48 h; in the data active means GI50 below about 0.43 µM; inactive means the rest
Classes used: active, inactive

• CCN1C(=O)N(CC)C2C1NN=c1s/c(=C\c3cc4ccccc4[nH]3)c(=O)n12 (centres undefined) = active
• O=C(COc1cccc(/C=C2\COc3ccc(Cl)cc3C2=O)c1)c1ccc(Cl)cc1 = inactive
• CC(C)C[C@H](NC(=O)[C@@H](O)[C@H](N)Cc1ccc([N+](=O)[O-])cc1)C(=O)O = inactive
• CSc1ccccc1C#Cc1ccccc1C#CCCCCO = inactive
• O=C(OCCBr)c1ccc(Cl)c([N+](=O)[O-])c1 = inactive
• CC(C)N1C(NNC(=O)c2cnccn2)=NS(=O)(=O)c2ccccc21 = inactive
• C[C@]12CCc3sc(Nc4ccc(O)cc4)nc3C1=CC[C@@H]1[C@@H]2CC[C@]2(C)C(=O)CC[C@@H]12 = inactive
• Cn1ccnc1C(=O)/C=C/c1ccc(CC(=O)Nc2ccc(C(F)(F)F)cc2)cc1 = inactive
• CC1(C)CC[C@]2(C(=O)N3CCOCC3)CC[C@]3(C)C(=CC[C@@H]4[C@@]5(C)C/C(=C/c6ccncc6)C(=O)C(C)(C)[C@@H]5CC[C@]43C)[C@@H]2C1 = inactive
• CN(C)CC1CCCCCC(CN(C)C)C1=O (centres undefined) = inactive
• COc1ccc2c(c1)C(C)Cc1c(Cl)nc(C)nc1N2C (centres undefined) = inactive
• Cc1cn2c(/C=N/Nc3ccccn3)c(-c3ccc(Cl)c([N+](=O)[O-])c3)nc2s1 = inactive
• N=C(N)c1ccc(COc2ccccc2OCc2ccc(C(=N)N)cc2)cc1 = inactive
• CC(C)c1ccc(Nc2nccc(-c3cnn4ncccc34)n2)cc1 = inactive
